- Test system: MRSA 2: MRSA DR 42412 (sputum)
- TEST_METHOD_NOTES: microbe, parasite or virus in culture
- EXPERIMENTAL_CONTEXT: MRSA 2; MHB containing polysorbate 80 (0.002%, v/v); 37 °C, 24 h
Bridge positions count the residues as written; N and C are the ends. Square brackets hold non-standard residues; d marks the D form. Peptide text beside a SMILES is read from it. d(aIle) = CC[C@H](C)[C@@H](N)C(=O)O; dNMeF = CN[C@H](Cc1ccccc1)C(=O)O
REPORTED_PROPERTY: MIC (with polysorbate 80) (µg/mL)
Numbers only, in µg/mL.

CC[C@H](C)[C@H](NC(=O)[C@@H](Cc1ccccc1)NC)C(=O)N[C@@H](CO)C(=O)N[C@H](CCC(N)=O)C(=O)N[C@@H](C(=O)N[C@H](C(=O)N[C@@H](CO)C(=O)N[C@H]1C(=O)N[C@@H](C)C(=O)N[C@@H](CCCNC(=N)N)C(=O)N[C@@H]([C@@H](C)CC)C(=O)O[C@H]1C)[C@@H](C)CC)[C@@H](C)CC [Compound 16, Arg10-teixobactin] | 0.125
CC[C@H](C)[C@H](NC(=O)[C@@H](Cc1ccccc1)NC)C(=O)N[C@@H](CO)C(=O)N[C@H](CCC(N)=O)C(=O)N[C@@H](C(=O)N[C@H](C(=O)N[C@@H](CO)C(=O)N[C@H]1C(=O)N[C@@H](C)C(=O)N[C@@H](C)C(=O)N[C@@H]([C@@H](C)CC)C(=O)O[C@H]1C)[C@@H](C)CC)[C@@H](C)CC [Compound 8, Ala10-teixobactin] (H-[dNMeF]IS[dQ][d(aIle)]IS[dT]AAI; ester 8-C) | 1

Endpoint output: MIC (with polysorbate 80) of CCCCCCCCCC(=O)N[C@@H](Cc1c[nH]c2ccccc12)C(=O)N[C@H](CC(N)=O)C(=O)N[C@@H](CC(=O)O)C(=O)N[C@@H]1C(=O)NCC(=O)N[C@@H](CCCN)C(=O)N[C@@H](CC(=O)O)C(=O)N[C@H](C)C(=O)N[C@@H](CC(=O)O)C(=O)NCC(=O)N[C@H](CO)C(=O)N[C@@H]([C@H](C)CC(=O)O)C(=O)N[C@@H](CC(=O)c2ccccc2N)C(=O)O[C@@H]1C [Daptomycin, reference compound] . Value?
0.5

###

I'd be grateful if you could share measured MIC (without polysorbate 80) for these entries.
- System: Staphylococcus aureus ATCC 29213
- TEST_METHOD_NOTES: microbe, parasite or virus in culture
- EXPERIMENTAL_CONTEXT: ATCC 29213, 24 h
Bridge positions count the residues as written; N and C are the ends. Square brackets hold non-standard residues; d marks the D form. Peptide text beside a SMILES is read from it. d(aIle) = CC[C@H](C)[C@@H](N)C(=O)O; dNMeF = CN[C@H](Cc1ccccc1)C(=O)O
Give bare numbers, in µg/mL.

CC[C@H](C)[C@@H]1NC(=O)[C@H](C)NC(=O)[C@H](NC(=O)[C@H](CO)NC(=O)[C@@H](NC(=O)[C@H](NC(=O)[C@@H](CCC(N)=O)NC(=O)[C@H](CO)NC(=O)[C@@H](NC(=O)[C@@H](Cc2ccccc2)NC)[C@@H](C)CC)[C@@H](C)CC)[C@@H](C)CC)[C@H](C)OC(=O)[C@H]([C@@H](C)CC)NC1=O [Compound 12, Ile10-teixobactin] (H-[dNMeF]IS[dQ][d(aIle)]IS[dT]AII; ester 8-C) | 1

// for each molecule in input: emit MIC (without polysorbate 80)
1. CC[C@H](C)[C@H](NC(=O)[C@@H](Cc1ccccc1)NC)C(=O)N[C@@H](CO)C(=O)N[C@H](CCC(N)=O)C(=O)N[C@@H](C(=O)N[C@H](C(=O)N[C@@H](CO)C(=O)N[C@H]1C(=O)N[C@@H](C)C(=O)N[C@@H](C)C(=O)N[C@@H]([C@@H](C)CC)C(=O)O[C@H]1C)[C@@H](C)CC)[C@@H](C)CC [Compound 8, Ala10-teixobactin] (H-[dNMeF]IS[dQ][d(aIle)]IS[dT]AAI; ester 8-C)
2. CC[C@H](C)[C@H](NC(=O)[C@@H](Cc1ccccc1)NC)C(=O)N[C@@H](CO)C(=O)N[C@H](CCC(N)=O)C(=O)N[C@@H](C(=O)N[C@H](C(=O)N[C@@H](CO)C(=O)N[C@H]1C(=O)N[C@@H](C)C(=O)N[C@@H](CCCNC(=N)N)C(=O)N[C@@H]([C@@H](C)CC)C(=O)O[C@H]1C)[C@@H](C)CC)[C@@H](C)CC
3. CC[C@H](C)[C@H](NC(=O)[C@@H](Cc1ccccc1)NC)C(=O)N[C@@H](CO)C(=O)N[C@H](CCC(N)=O)C(=O)N[C@@H](C(=O)N[C@H](C(=O)N[C@@H](CO)C(=O)N[C@H]1C(=O)N[C@@H](C)C(=O)N[C@@H](C(C)C)C(=O)N[C@@H]([C@@H](C)CC)C(=O)O[C@H]1C)[C@@H](C)CC)[C@@H](C)CC [Compound 11, Val10-teixobactin] (H-[dNMeF]IS[dQ][d(aIle)]IS[dT]AVI; ester 8-C)

[4, 2, 2]

// query MIC (without polysorbate 80) value for entry CC[C@H](C)[C@H](NC(=O)[C@@H](Cc1ccccc1)NC)C(=O)N[C@@H](CO)C(=O)N[C@H](CCC(N)=O)C(=O)N[C@@H](C(=O)N[C@H](C(=O)N[C@@H](CO)C(=O)N[C@H]1C(=O)N[C@@H](C)C(=O)N[C@@H](CC(C)C)C(=O)N[C@@H]([C@@H](C)CC)C(=O)O[C@H]1C)[C@@H](C)CC)[C@@H](C)CC [Compound 13, Leu10-teixobactin] (H-[dNMeF]IS[dQ][d(aIle)]IS[dT]ALI; ester 8-C)
1

###

- System: MRSA 1: MRSA ATCC 700699
- TEST_METHOD_NOTES: microbe, parasite or virus in culture
- EXPERIMENTAL_CONTEXT: ATCC 700699, 24 h
Bridge positions count the residues as written; N and C are the ends. Square brackets hold non-standard residues; d marks the D form. Peptide text beside a SMILES is read from it. d(aIle) = CC[C@H](C)[C@@H](N)C(=O)O; dNMeF = CN[C@H](Cc1ccccc1)C(=O)O
Assign MIC to each entry below.
Give bare numbers, in μg mL^–1.

CC[C@H](C)[C@H](NC(=O)[C@@H](Cc1ccccc1)NC)C(=O)N[C@@H](CO)C(=O)N[C@H](CCC(N)=O)C(=O)N[C@@H](C(=O)N[C@H](C(=O)N[C@@H](CO)C(=O)N[C@H]1C(=O)N[C@@H](C)C(=O)N[C@@H](C)C(=O)N[C@@H]([C@@H](C)CC)C(=O)O[C@H]1C)[C@@H](C)CC)[C@@H](C)CC [Compound 8, Ala10-teixobactin] (H-[dNMeF]IS[dQ][d(aIle)]IS[dT]AAI; ester 8-C) | 4

// each listed compound needs a value for MIC
1. CC[C@H](C)[C@H](NC(=O)[C@@H](Cc1ccccc1)NC)C(=O)N[C@@H](CO)C(=O)N[C@H](CCC(N)=O)C(=O)N[C@@H](C(=O)N[C@H](C(=O)N[C@@H](CO)C(=O)N[C@H]1C(=O)N[C@@H](C)C(=O)N[C@@H](C(C)C)C(=O)N[C@@H]([C@@H](C)CC)C(=O)O[C@H]1C)[C@@H](C)CC)[C@@H](C)CC [Compound 11, Val10-teixobactin] (H-[dNMeF]IS[dQ][d(aIle)]IS[dT]AVI; ester 8-C)
2. CC[C@H](C)[C@@H]1NC(=O)[C@H](C)NC(=O)[C@H](NC(=O)[C@H](CO)NC(=O)[C@@H](NC(=O)[C@H](NC(=O)[C@@H](CCC(N)=O)NC(=O)[C@H](CO)NC(=O)[C@@H](NC(=O)[C@@H](Cc2ccccc2)NC)[C@@H](C)CC)[C@@H](C)CC)[C@@H](C)CC)[C@H](C)OC(=O)[C@H]([C@@H](C)CC)NC1=O [Compound 12, Ile10-teixobactin] (H-[dNMeF]IS[dQ][d(aIle)]IS[dT]AII; ester 8-C)
3. CC[C@H](C)[C@H](NC(=O)[C@@H](Cc1ccccc1)NC)C(=O)N[C@@H](CO)C(=O)N[C@H](CCC(N)=O)C(=O)N[C@@H](C(=O)N[C@H](C(=O)N[C@@H](CO)C(=O)N[C@H]1C(=O)N[C@@H](C)C(=O)N[C@@H](CC(C)C)C(=O)N[C@@H]([C@@H](C)CC)C(=O)O[C@H]1C)[C@@H](C)CC)[C@@H](C)CC [Compound 13, Leu10-teixobactin] (H-[dNMeF]IS[dQ][d(aIle)]IS[dT]ALI; ester 8-C)

1. 1
2. 0.25
3. 0.25

Data origin: paper PMC5855875
